B1: NELF-E aptamer (parent)
chain: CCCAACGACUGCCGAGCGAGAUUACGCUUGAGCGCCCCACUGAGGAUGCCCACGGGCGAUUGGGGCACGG

# Variants of: B1
# assay_explanation: HiTS-RAP
# reported_conditions: with NELF-E (Drosophila)
pKd: −log10 of the molar value.
Please enter satisfied where pKd is greater than or equal to 8, and not satisfied where it is lower.

Solved entries (count: 3):
U10G G26C ... not satisfied
A8G U61C ... not satisfied
A4G U41G ... satisfied

Note: attention shifts to another entry.
Challenge: Identify whether the reported pKd of the following variant is 8 or greater: G69C
Response given: satisfied
